Each recorded value in this set is attributed to ChEMBL document CHEMBL1128387.

Reported values of pIC50 for individual entries
tested.target: Sigma non-opioid intracellular receptor 1 (Rattus norvegicus)
Sequence (Q9R0C9 whole entry): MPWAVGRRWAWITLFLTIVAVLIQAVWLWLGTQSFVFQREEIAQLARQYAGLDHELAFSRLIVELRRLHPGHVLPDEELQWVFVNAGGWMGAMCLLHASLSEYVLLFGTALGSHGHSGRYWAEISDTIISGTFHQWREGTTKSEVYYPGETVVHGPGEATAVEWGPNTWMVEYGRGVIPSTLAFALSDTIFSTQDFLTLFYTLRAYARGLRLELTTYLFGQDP
measurement.protocol: Compound was evaluated for the binding affinity towards Sigma receptor type 1 using radioligand ([3H]-(+)- Pentazocine) binding assay.
// pIC50 here means minus log10 of the molar concentration (mol/L)

# annotated cases, reported pIC50 shown
smi: Fc1ccc(-n2cc(CCCCN3CCC4(CC3)Cc3ccccc3CO4)c3ccccc32)cc1
pIC50: 7.64
--
smi: CCN1CCC2(CC1)OCc1ccccc12
pIC50: 6.85
--
smi: c1ccc(CCCCN2CCC3(CC2)OCc2ccccc23)cc1
pIC50: 9.57

Sure, the documented pIC50 for "Cc1ccc2c(c1)COC21CCN(CCCCc2cn(-c3ccc(F)cc3)c3ccccc23)CC1" is 8.02

Value of pIC50 reported for the compound "Fc1ccc(-n2cc(CCCCN3CCC4(CC3)COc3ccccc34)c3ccccc32)cc1" is 8.42
